B1: library; numbered along this chain (parent)
chain: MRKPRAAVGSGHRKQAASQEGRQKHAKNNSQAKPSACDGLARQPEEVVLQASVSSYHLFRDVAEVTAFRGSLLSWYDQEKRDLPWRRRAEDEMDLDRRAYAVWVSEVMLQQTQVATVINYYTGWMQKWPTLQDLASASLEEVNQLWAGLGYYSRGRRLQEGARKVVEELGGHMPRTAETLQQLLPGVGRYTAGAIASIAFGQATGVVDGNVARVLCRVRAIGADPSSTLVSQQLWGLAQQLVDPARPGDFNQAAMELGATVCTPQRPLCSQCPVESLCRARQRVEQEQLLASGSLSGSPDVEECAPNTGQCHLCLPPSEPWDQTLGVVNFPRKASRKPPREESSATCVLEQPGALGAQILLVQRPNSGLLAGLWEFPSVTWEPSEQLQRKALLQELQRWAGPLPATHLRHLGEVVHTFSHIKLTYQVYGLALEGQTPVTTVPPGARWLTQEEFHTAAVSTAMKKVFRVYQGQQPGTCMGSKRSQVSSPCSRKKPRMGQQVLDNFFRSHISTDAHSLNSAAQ

variants of: B1; assay: 8OG:A repair function score (normalized; synonymous = 0, nonsense = -1) (normalized log-likelihood score); higher = more repair activity (WT-like); conditions: with 8OG:A DNA repair reporter (GFP) in HEK-293 MUTYH KO cells;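 also: cells sorted at 72 h after reporter transfection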
Classify on 8OG:A repair function score using band A: < -0.2; band B: ≥ -0.2 and < -0.03; band C: ≥ -0.03

[[record]]
mutation = "H508C"
class_label = "band C"

[[record]]
mutation = "L315M"
class_label = "band C"

[[record]]
mutation = "K390N"
class_label = "band C"

[[record]]
mutation = "T116I"
class_label = "band A"

[[record]]
mutation = "Q435E"
class_label = "band B"

[[record]]
mutation = "L501E"
class_label = "band C"

[[record]]
mutation = "L268V"
class_label = "band B"

[[record]]
mutation = "A192K"
class_label = "band A"

[[record]]
mutation = "E106G"
class_label = "band A"

[[record]]
mutation = "M462C"
class_label = "band B"

[[record]]
mutation = "L149G"
class_label = "band A"

[[record]]
mutation = "L396V"
class_label = "band C"

[[record]]
mutation = "L289C"
class_label = "band B"

[[record]]
mutation = "V327Y"
class_label = "band A"

[[record]]
mutation = "V102W"
class_label = "band A"

[[record]]
mutation = "P442M"
class_label = "band C"

[[record]]
mutation = "L373Y"
class_label = "band A"

[[record]]
mutation = "V102F"
class_label = "band A"

[[record]]
mutation = "E319N"
class_label = "band B"

[[record]]
mutation = "G353Y"
class_label = "band B"

[[record]]
mutation = "P339E"
class_label = "band A"

[[record]]
mutation = "L349C"
class_label = "band C"

[[record]]
mutation = "S136C"
class_label = "band B"

[[record]]
mutation = "G444H"
class_label = "band B"

[[record]]
mutation = "S459Y"
class_label = "band A"

[[record]]
mutation = "T440G"
class_label = "band B"

[[record]]
mutation = "Q132N"
class_label = "band B"

[[record]]
mutation = "L73I"
class_label = "band B"

[[record]]
mutation = "S294G"
class_label = "band C"

[[record]]
mutation = "T130M"
class_label = "band A"

[[record]]
mutation = "L373H"
class_label = "band A"

[[record]]
mutation = "A400Y"
class_label = "band B"

[[record]]
mutation = "L237I"
class_label = "band C"

[[record]]
mutation = "S486H"
class_label = "band C"

[[record]]
mutation = "P320W"
class_label = "band B"

[[record]]
mutation = "L392S"
class_label = "band A"

[[record]]
mutation = "H57D"
class_label = "band A"

[[record]]
mutation = "S55E"
class_label = "band C"

[[record]]
mutation = "V104K"
class_label = "band A"

[[record]]
mutation = "S296R"
class_label = "band C"

[[record]]
mutation = "S480E"
class_label = "band C"

[[record]]
mutation = "T66A"
class_label = "band C"

[[record]]
mutation = "R87S"
class_label = "band C"

[[record]]
mutation = "V62N"
class_label = "band C"

[[record]]
mutation = "E375W"
class_label = "band A"

